Metric: melting point

What value of melting point has been recorded for this entry: Cc1ccc(N=Nc2c(N)nn3c(N)c4c(=O)nc5scnn5c4nc23)cc1 [Compound 16a]
> 320 °C

Entry to check: N#Cc1c(N)nc(N)c2c(=O)nc3scnn3c12 [Compound 6]
302 to 303 °C

Would you mind doing Nc1c2c(=O)nc3scnn3c2nc2nnnn12 [Compound 11] as well?
274 to 275 °C

And the next one, Nc1n[nH]c2c1c(=O)nc1scnn12 [Compound 4] ?
281 to 282 °C

Entry N#CC1=C(c2ccccc2)OC(N)=C2C(=O)N=C3SC=NN3C12 (stereo not shown) [Compound 9b] please
258 to 260 °C

Nc1nn(-c2ccccc2)c2c1c(=O)nc1scnn12 [Compound 5] , same question.
254 to 255 °C

What about this compound? CCOC(=O)c1c(N)nc(N)c2c(=O)nc3scnn3c12 [Compound 7]
278 to 280 °C

Likewise for N#Cc1cn2ncsc2nc1=O [Compound 3] ?
264 to 265 °C

Then this compound: CC1=C(C#N)C2C(=C(N)O1)C(=O)N=C1SC=NN12 (stereo not shown) [Compound 9a]
264 to 265 °C

Record: COc1ccc(N=Nc2c(N)nn3c(N)c4c(=O)nc5scnn5c4nc23)cc1 [Compound 16b]
> 320 °C

Also need Nc1c2c(=O)nc3scnn3c2nc2nncn12 [Compound 12] , thanks.
290 to 291 °C

CC1=C(C(=O)c2ccccc2)C2C(=C(N)O1)C(=O)N=C1SC=NN12 (stereo not shown) [Compound 8b] ?
239 to 241 °C

Consider next the compound COc1ccc(N=Nc2c(O)nn3c(N)c4c(=O)nc5scnn5c4nc23)cc1 [Compound 17b] in the same way.
280 to 281 °C

Can you check Cc1nn(-c2ccccc2)c2c1C1C(=C(N)O2)C(=O)N=C2SC=NN21 (stereo not shown) [Compound 10b] next?
266 to 267 °C

Check Cc1cc2nc3c(c(N)n2n1)c(=O)nc1scnn13 [Compound 13] too.
304 to 306 °C

Try Cc1ccc(N=Nc2c(O)nn3c(N)c4c(=O)nc5scnn5c4nc23)cc1 [Compound 17a] next.
264 to 265 °C

----------
- System: Chromobacterium violaceum (ATCC 12472)
- Assay method text: Antiquorum-sensing assay (violacein pigment inhibition)
- Format: cell-based
- Condition notes: Chromobacterium violaceum, ATCC12472, 48 h, read-out: Diameter of quorum-sensing inhibition C. violaceum
Metric: zone of inhibition at 5000 µg/mL (mm)
Please reply with the bare figure in mm and do not write the unit itself.

Can you look up zone of inhibition at 5000 µg/mL on Chromobacterium violaceum (ATCC 12472) for Cc1cc2nc3c(c(N)n2n1)c(=O)nc1scnn13 [Compound 13] ?
5

What about COc1ccc(N=Nc2c(N)nn3c(N)c4c(=O)nc5scnn5c4nc23)cc1 [Compound 16b] ?
12

Same lookup for Cc1ccc(N=Nc2c(O)nn3c(N)c4c(=O)nc5scnn5c4nc23)cc1 [Compound 17a] , please.
11

And COc1ccc(N=Nc2c(O)nn3c(N)c4c(=O)nc5scnn5c4nc23)cc1 [Compound 17b] ?
12

Follow-up entry: Cc1n[nH]c2c1C1C(=C(N)O2)C(=O)N=C2SC=NN21 (stereo not drawn) [Compound 10a]
13

Also N#CC1=C(c2ccccc2)OC(N)=C2C(=O)N=C3SC=NN3C12 (stereo not drawn) [Compound 9b] ?
3

// same read-out, input: Nc1c2c(=O)nc3scnn3c2nc2nnnn12 [Compound 11]
5

Okay, and Cc1ccc(N=Nc2c(N)nn3c(N)c4c(=O)nc5scnn5c4nc23)cc1 [Compound 16a] ?
9

Another compound to check: Cc1nn(-c2ccccc2)c2c1C1C(=C(N)O2)C(=O)N=C2SC=NN21 (stereo not drawn) [Compound 10b]
9

Also, CC(=O)C1=C(C)OC(N)=C2C(=O)N=C3SC=NN3C12 (stereo not drawn) [Compound 8a] please.
3

Further, for Nc1c2c(=O)nc3scnn3c2nc2nncn12 [Compound 12] ?
3

Thanks! And CC1=C(C#N)C2C(=C(N)O1)C(=O)N=C1SC=NN12 (stereo not drawn) [Compound 9a] ?
11

CC1=C(C(=O)c2ccccc2)C2C(=C(N)O1)C(=O)N=C1SC=NN12 (stereo not drawn) [Compound 8b] , same question.
12
